ASSAYED TARGET: stearoyl-CoA desaturase (SCD) (Rattus norvegicus)
Construct: The microsomes were quickly thawed and added to assay buffer so that a concentration of 0.4 mg/ml was achieved; from tissue
TEST SUMMARY: SCD assay with rat liver microsomes ([3H]stearoyl CoA, adapted from Talamo and Bloch)
Type: biochemical
CONDITION SET: Table 1; rat liver microsomes 0.2 mg/ml assay final, [3H]stearoyl CoA substrate, 30 min preincubation, 45 min reaction, room temperature
pIC50: −log10 of the molar value.
PARAMETER MEASURED: pIC50

# COMPOUND, ASSAYED TARGET, pIC50
rows = [
    ("O=C(COc1ccccc1F)Nc1ccc2ncn(Cc3ccc(Cl)c(Cl)c3)c(=O)c2c1 [XXVI]", "stearoyl-CoA desaturase (SCD) (Rattus norvegicus)", 5.43),
    ("O=C(Nc1ccc2c(=O)n(Cc3ccc(Cl)c(F)c3)cnc2c1)OCc1cccnc1 [LXXVII]", "stearoyl-CoA desaturase (SCD) (Rattus norvegicus)", 6.60),
    ("O=C(COc1cccnc1)Nc1ccc2c(=O)n(Cc3ccc(Cl)c(Cl)c3)cnc2c1 [LI]", "stearoyl-CoA desaturase (SCD) (Rattus norvegicus)", 5.84),
    ("CC(C)COC(=O)Nc1ccc2ncn(Cc3ccc(Cl)c(Cl)c3)c(=O)c2c1 [VII]", "stearoyl-CoA desaturase (SCD) (Rattus norvegicus)", 5.10),
]

A. CC(C)OC(=O)Nc1ccc2ncn(Cc3ccc(Cl)c(Cl)c3)c(=O)c2c1 [IX]
B. O=C(NCc1ccccc1)Nc1ccc2ncn(Cc3ccc(Cl)c(Cl)c3)c(=O)c2c1 [V]
C. O=C(COc1cccc(F)c1)Nc1ccc2ncn(Cc3ccc(Cl)cc3)c(=O)c2c1 [XLIII]
D. O=C(Nc1ccc2c(=O)n(Cc3cccc(F)c3)cnc2c1)OCc1cccnc1 [LXXVI]
E. O=C(Nc1ccc2c(=O)n(Cc3ccc(Cl)cc3)cnc2c1)OCc1ccccc1 [XLVIII]
Please list these in order of increasing pIC50. Thank you! List labels; respect the requested ordering.
A, C, B, D, E
(A: 4.85, C: 5.19, B: 5.50, D: 5.87, E: 7.05)

----------
ASSAYED TARGET: stearoyl-CoA desaturase (SCD) (Rattus norvegicus, UniProt P07308)
Construct: The microsomes were quickly thawed and added to assay buffer so that a concentration of 0.4 mg/ml was achieved; from tissue
TEST SUMMARY: SCD assay with rat liver microsomes ([3H]stearoyl CoA, adapted from Talamo and Bloch)
Format: biochemical
CONDITION SET: Table 2 (Example 21, procedures of Example 20); rat liver microsomes, [3H]stearoyl CoA substrate
Protocol: Male Spraque Dawley Rats were placed on regimented fasting protocol for one week to stimulate SCD enzymatic activity. […] The protein concentration of the microsomal preparation was determined by BCA assay (Pierce) and the microsomes were aliquoted and stored at −80° C. […] SCD was determined in the desaturase assay buffer. […]
PARAMETER MEASURED: IC50 (nM)

# COMPOUND SMILES, IC50 [nM]
records = [
    ("CC(=O)Nc1ccc2ncn(Cc3ccc(C(F)(F)F)cc3)c(=O)c2c1", 28000),
]

a. O=C(Nc1ccc2ncn(Cc3ccc(F)c(C(F)(F)F)c3)c(=O)c2c1)OCc1ccccc1
b. O=C(CO)Nc1ccc2c(=O)n(Cc3ccc4ccccc4c3)cnc2c1
When the recorded IC50 values are compared, which is smaller: that of a or that of b ? Identify your selection by its label.
a

----------
ASSAYED TARGET: stearoyl-CoA desaturase (SCD) (Rattus norvegicus, UniProt P07308)
Construct: The microsomes were quickly thawed and added to assay buffer so that a concentration of 0.4 mg/ml was achieved; from tissue
Sequence (P07308 1-358): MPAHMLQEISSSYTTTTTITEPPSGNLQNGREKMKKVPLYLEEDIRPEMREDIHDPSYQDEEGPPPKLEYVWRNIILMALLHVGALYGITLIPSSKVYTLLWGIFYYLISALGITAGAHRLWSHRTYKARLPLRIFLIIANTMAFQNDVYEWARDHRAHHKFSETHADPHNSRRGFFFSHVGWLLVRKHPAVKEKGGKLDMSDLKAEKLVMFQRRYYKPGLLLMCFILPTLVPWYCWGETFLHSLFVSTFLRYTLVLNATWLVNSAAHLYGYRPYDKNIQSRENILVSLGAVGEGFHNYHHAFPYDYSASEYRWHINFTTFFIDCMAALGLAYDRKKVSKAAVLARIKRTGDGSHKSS
TEST SUMMARY: SCD assay with rat liver microsomes ([3H]stearoyl CoA, adapted from Talamo and Bloch)
Format: biochemical
CONDITION SET: Table 2 (Example 21, procedures of Example 20); rat liver microsomes, [3H]stearoyl CoA substrate
PARAMETER MEASURED: IC50 (nM)

# MOLECULE, UNIT OF MEASURE, REPORTED VALUE
measured = [
    ("CC(=O)OCC(=O)Nc1ccc2ncn(CCCc3ccccc3)c(=O)c2c1", "nM", 1300),
]

1. CC(=O)OCC(=O)Nc1ccc2ncn(Cc3ccc(F)c(Cl)c3)c(=O)c2c1
2. O=C(CO)Nc1ccc2ncn(Cc3ccc(F)c(C(F)(F)F)c3)c(=O)c2c1
3. CCC(c1ccc(Cl)c(Cl)c1)n1cnc2ccc(NC(=O)CO)cc2c1=O (stereo not shown)
Arrange these molecules by their IC50, starting with the largest number. Write the labels, ordered according to the request.
3, 1, 2
